The sequences listed here are annotated with their binding signal (PBM E-score (-0.5 to 0.5)).
- Tested on: C34D1.1 (C34D1.1) (Caenorhabditis elegans)
- Sequence: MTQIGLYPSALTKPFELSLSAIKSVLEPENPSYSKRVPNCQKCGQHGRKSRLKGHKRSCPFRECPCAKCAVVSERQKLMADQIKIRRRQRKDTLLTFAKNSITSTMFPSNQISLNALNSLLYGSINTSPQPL
Just the number, please.

Solved entries:
# residueString, system, quantitativeResult
rows = [
    ("GAAACATA (double strand) [8-mer GAAACATA]", "C34D1.1 (C34D1.1) (Caenorhabditis elegans)", 0.488),
    ("AGTGTTTC (double strand) [8-mer AGTGTTTC]", "C34D1.1 (C34D1.1) (Caenorhabditis elegans)", 0.47),
    ("TGAAACAA (double strand) [8-mer TGAAACAA]", "C34D1.1 (C34D1.1) (Caenorhabditis elegans)", 0.485),
]

Please turn your attention to the following entry.
Which value of binding signal (PBM E-score (-0.5 to 0.5)) has been reported for ATTGTTTC (double strand) [8-mer ATTGTTTC] in the records?
0.487

* * *

- system: bed-3 (F25H8.6) (Caenorhabditis elegans)
- Sequence: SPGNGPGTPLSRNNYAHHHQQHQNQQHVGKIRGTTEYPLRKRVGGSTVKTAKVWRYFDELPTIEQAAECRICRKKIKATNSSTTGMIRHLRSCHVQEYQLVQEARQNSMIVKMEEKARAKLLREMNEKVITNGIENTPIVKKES
readoutKind: binding signal (PBM E-score (-0.5 to 0.5))
Just the number, please.

Solved entries:
# residueString, quantitativeResult
rows = [
    ("TCCCGAGA (double strand) [8-mer TCCCGAGA]", 0.493),
    ("ATCTCGAG (double strand) [8-mer ATCTCGAG]", 0.497),
    ("GATCCCGA (double strand) [8-mer GATCCCGA]", 0.49),
]

Please turn your attention to the following entry.
Which value of binding signal (PBM E-score (-0.5 to 0.5)) has been reported for CTCGAGAA (double strand) [8-mer CTCGAGAA] in the records?
0.491

* * *

- system: ztf-29 (Y66D12A.12) (Caenorhabditis elegans)
- Sequence: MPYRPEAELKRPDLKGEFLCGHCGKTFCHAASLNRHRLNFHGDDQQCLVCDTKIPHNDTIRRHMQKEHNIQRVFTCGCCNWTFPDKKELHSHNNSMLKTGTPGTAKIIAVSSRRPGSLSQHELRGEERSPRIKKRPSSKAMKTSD
readoutKind: binding signal (PBM E-score (-0.5 to 0.5))

# residueString, result
measured = [
    ("AAGCTTGT (double strand) [8-mer AAGCTTGT]", 0.489),
]

Record lookup: for ztf-29 (Y66D12A.12) (Caenorhabditis elegans), what binding signal (PBM E-score (-0.5 to 0.5)) belongs to AAAGCTTT (double strand) [8-mer AAAGCTTT] ?
0.496

Record lookup: for ztf-29 (Y66D12A.12) (Caenorhabditis elegans), what binding signal (PBM E-score (-0.5 to 0.5)) belongs to AAGCTTTA (double strand) [8-mer AAGCTTTA] ?
0.494

Record lookup: for ztf-29 (Y66D12A.12) (Caenorhabditis elegans), what binding signal (PBM E-score (-0.5 to 0.5)) belongs to AAAGCTTC (double strand) [8-mer AAAGCTTC] ?
0.486
